Test system: ACHN renal
methodNotes: NCI tumour cell line growth inhibition, 48 h
observedProperty: TGI

> print(dat)
                                    compound  experimentaltarget  observedproperty  readoutvalue
 1  O=c1[nH]/c(=C/c2ccc(OCc3ccccc3)cn2)c(=O)[nH]/c1=C/c1ccc(F)cc1          ACHN renal               TGI     > 76.2 µM
 2  COc1ccc(-c2cc(-c3ccc(Cl)cc3)nc(SCCCC(=O)NO)n2)cc1          ACHN renal               TGI       1.88 µM
 3  COc1ccc(-c2oc(=O)ccc2-c2cc(OC)c(OC)c(OC)c2)cc1O          ACHN renal               TGI     > 95.2 µM
 4  Cc1cccc(C)c1NC(=O)C(=O)CC(=O)/C=C/c1ccccc1          ACHN renal               TGI      > 100 µM
 5        O=C1Cc2c([nH]c3ccccc23)-c2ccccc2N1          ACHN renal               TGI      > 100 µM
 6                              O=c1ccs[nH]1          ACHN renal               TGI       17.8 µM
 7  CC(O)c1cc2c(s1)C(=O)c1ccsc1C2=O (stereo unspecified)          ACHN renal               TGI      0.267 µM
 8  COc1ccc(-c2cc(-c3cccn3C)c(C#N)c(=O)[nH]2)cc1OC          ACHN renal               TGI      > 100 µM
 9   CC(=O)[C@@H]1C/C(=C\OCc2ccccc2)O[C@H]1C          ACHN renal               TGI      > 100 µM
10               Clc1nssc1=Nc1nonc1-c1ccccc1          ACHN renal               TGI       36.1 µM
11  COc1ccc(NC(=O)CC/C(CC(=O)C(C)(C)C)=N\NC(=O)C(=O)NN)cc1          ACHN renal               TGI      > 100 µM
12  Cc1c(S(=O)(=O)O)ccc(N=Nc2c(O)c(C(=O)O)cc3ccccc23)c1Cl          ACHN renal               TGI      > 100 µM
13  COc1cc(S(=O)(=O)Nc2nc(-c3ccc(N4C(=O)/C(=C/C=C/c5ccccc5)N=C4c4ccccc4)cc3)cs2)ccc1Cl          ACHN renal               TGI      > 100 µM
14  CC1=NN(c2cccc(Cl)c2)C2(SCC(=O)N2c2nc3ccccc3s2)/C1=C\c1ccc(N(C)C)cc1 (stereo unspecified)          ACHN renal               TGI       84.1 µM
15                COc1ccc2nccc(SCC(=O)O)c2c1          ACHN renal               TGI      > 100 µM
16  C=C1C(=O)O[C@H]2[C@H]1CC/C(COC(=O)C(=O)c1cn(C)c3ccc(Cl)cc13)=C\CC[C@@]1(C)O[C@@H]21          ACHN renal               TGI        2.5 µM
17  COc1ccc(C(=O)C(C(=O)CC(=O)Nc2cccc(C(F)(F)F)c2)c2ccc(OC)cc2)cc1 (stereo unspecified)          ACHN renal               TGI      > 100 µM
18  CC(=O)N1C/C(=C/c2ccc(Cl)cc2)C(=O)/C(=C/c2ccc(Cl)cc2)C1          ACHN renal               TGI       2.05 µM
19  O=[N+]([O-])c1ccc(N=Nc2c(O)ccc3ccccc23)c([N+](=O)[O-])c1          ACHN renal               TGI      > 100 µM
20  COc1cccc(C2c3cc4c(cc3OC(N3CCOCC3)C2C)OCO4)c1OC (stereo unspecified)          ACHN renal               TGI       70.9 µM
21  O=C(O)NC(c1ccccc1)C(NC(=O)c1ccccc1)c1ccccc1 (stereo unspecified)          ACHN renal               TGI      > 100 µM

###

Tested on: PC-3 prostate
methodNotes: NCI tumour cell line growth inhibition, 48 h; in the data active = GI50 below about 0.43 µM; inactive = the rest
Classes used: true for active, false for inactive

> print(dat)
                                   molecule  qualitativelabel
1  CC(=O)N1C/C(=C/c2ccc(Cl)cc2)C(=O)/C(=C/c2ccc(Cl)cc2)C1             false
2  CC(=Nc1ccccc1)C1=C(O)C(Cc2ccc(O)cc2)NC1=O (stereo unspecified)              true
3            CCN(Cc1ccccc1)c1ccc(CO)c(Cl)c1             false
4  COc1cc2c(cc1OC)-c1ccc3cc4c(cc3c1N(CCCn1ccnc1)C2)OCO4             false
5  NC1CCC(Nc2nc(NCc3ccc(-c4ccccc4O)nc3)c3ncn(C4CCCC4)c3n2)CC1 (stereo unspecified)              true
6        C/C(=N\Nc1cc(C)c2ccccc2n1)c1ccccn1              true

###

Attribute: TGI
Tested on: CCRF-CEM leukemia
methodNotes: NCI tumour cell line growth inhibition, 48 h
observedProperty: TGI

> print(dat)
                                    compound  readoutvalue
 1             Nc1nc(N)c2cc(-c3ccccc3)cnc2n1       98.3 µM
 2  CNC(=S)NC(=O)c1c(Cl)n(C(=O)OC(C)(C)C)c2ccccc12      > 100 µM
 3  COC(=O)[C@]12CC[C@H]3CC[C@H]([C@H]31)[C@H](c1ccccc1)N2       95.9 µM
 4                   CC(=O)c1cccc(C)c1C(=O)O      > 100 µM
 5  c1cc(N2CCCN(c3ccc(C4=NCCCN4)cc3)CC2)ccc1C1=NCCCN1      > 100 µM
 6            CCN(Cc1ccccc1)c1ccc(CO)c(Cl)c1      > 100 µM
 7  COc1ccc(NC(=O)CC/C(CC(=O)C(C)(C)C)=N\NC(=O)C(=O)NN)cc1      > 100 µM
 8  O=C(O)C1CCCCC1C(=O)Nn1cnnc1 (stereo unspecified)      > 100 µM
 9  CCCCN1CN2C(=O)C(C(=O)OCC)C(=O)c3sc4nc(SC)nc1c4c32 (stereo unspecified)       83.9 µM
10  COc1ccc(-c2cc(-c3cccn3C)c(C#N)c(=O)[nH]2)cc1OC      > 100 µM
11  COC(=O)C1=C(O)c2cc(-c3ccccc3)c(-c3ccccc3)c(C#N)c2NC(=O)C1      > 100 µM

###

Tested on: PC-3 prostate
methodNotes: NCI tumour cell line growth inhibition, 48 h
observedProperty: TGI

> print(dat)
                                   molecule  experimentaltarget  observedproperty  readoutvalue
1  Cc1ccc2c(-c3ccnc(Nc4ccccc4)n3)c(-c3ccc(F)cc3)nn2n1       PC-3 prostate               TGI       > 25 µM
2  COc1c(OC(C)C)c(OC(C)C)c2oc(=O)n3c2c1C(c1ccccc1-n1c(C)ccc1C)C=C3 (centres undefined)       PC-3 prostate               TGI      > 100 µM
3  COc1cc(S(=O)(=O)Nc2nc(-c3ccc(N4C(=O)/C(=C/C=C/c5ccccc5)N=C4c4ccccc4)cc3)cs2)ccc1Cl       PC-3 prostate               TGI      > 100 µM
4  CNC(=O)c1ccc(N2C(=S)N(c3ccc(C#N)c(C(F)(F)F)c3)C(=O)C2(C)C)cc1F       PC-3 prostate               TGI      > 100 µM
5  C=CC1CCC[N+]1(CC(=O)OCC)Cc1ccccc1 (centres undefined)       PC-3 prostate               TGI      > 100 µM
6  COc1ccc(NC([Se])=NC23CC4CC(CC(C4)C2)C3)cc1       PC-3 prostate               TGI       32.2 µM
7  CC1=CC[C@H](C(C)C)C(C(O)[C@@H](C)O[Si](c2ccccc2)(c2ccccc2)C(C)(C)C)C1=O (some centres undefined)       PC-3 prostate               TGI       33.6 µM
8  NC1CCC(Nc2nc(NCc3ccc(-c4ccccc4O)nc3)c3ncn(C4CCCC4)c3n2)CC1 (centres undefined)       PC-3 prostate               TGI       1.02 µM
9  COC(=O)c1ccccc1C1CN=NC12Cc1ccccc1C2=O (centres undefined)       PC-3 prostate               TGI      > 100 µM

This collection of values is drawn from PubChem BioAssay (NCI).
